# Tested on: Klebsiella pneumoniae
# conditionSummary: Concentration 32 ug.mL-1; ASSAY_TEST Inhibition of Bacterial Growth; detection method Absorption (OD600); MEDIA CAMHB; plate type 384well; NBS; CORNING #3640; time 18 hr
# Description: Antibacterial activity against Klebsiella pneumoniae MDR ATCC 70063 (CO-ADD:GN_003); MIC in CAMBH media using NBS plates, by OD(600)
Results with a measured potency or affinity are listed apart.

| compound | Inhibition, % |
| --- | --- |
| CCOC(=O)C1=C(C)OC(N)=C(C#N)C1c1ccc([N+](=O)[O-])cc1 (configuration not stated) | 12.45 |
| CCOC(=O)c1c(C)nc(NC2CCN(Cc3ccccc3)CC2)c(C#N)c1-c1ccccc1 | 11.42 |
| CCOc1nc2nc(CCc3ccccc3)ccc2c(-c2ccccc2)c1C#N | 1.47 |
| C#CCNc1nc(OC)c(C#N)c(-c2ccccc2)c1C#N | 13.71 |
| N#Cc1c(N)nc(NCc2ccccc2)c(C#N)c1-c1ccccc1 | -1.47 |
| N#Cc1c(N)nc2[nH]nc(N)c2c1-c1ccccc1 | 17.63 |
| O=C(Cc1ccccc1)N/N=C/c1c[nH]c2ccccc12 | 20.21 |
| O=C(N/N=C/c1c[nH]c2ccccc12)C(c1ccccc1)c1ccccc1 | 10.97 |
| O=C1OC(c2ccccc2)=NC12CC2c1ccc([N+](=O)[O-])cc1 (configuration not stated) | 15.67 |
| Br.C#CCNCc1ccccc1 | 12.8 |
| Cl.NC1(C(=O)O)CC1c1cccc(Cl)c1 (configuration not stated) | 18.53 |
| CNC(=O)c1c(Cl)c2cc(OCc3ccccc3)ccc2n1C | 13.13 |
| O=C1SC(SCc2ccccc2)=NC1=Cc1cccc(OCc2ccccc2)c1 | -15.18 |
| O=C1OC(c2ccc([N+](=O)[O-])cc2)=NC1=Cc1ccccc1 | 6.09 |
| COc1ccc(C2C(C#N)=C(N)Oc3ccc4ccccc4c32)cc1 (configuration not stated) | 8.69 |
| C#CCNc1ncc(C#N)c(N)n1 | 3.55 |
| COc1ccc(C2c3c(ccc4ccccc34)OC(=NBr)C2(Br)C#N)cc1 (configuration not stated) | 26.17 |
| CCOC(=O)c1c(C)nc(/N=N/c2nc(C)c(C(=O)OCC)c(-c3ccccc3)c2C#N)c(C#N)c1-c1ccccc1 | 0.93 |
| O=C(Cc1c[nH]c2ccccc12)NN=Cc1ccccc1 | -6 |
| C#CCN(C)c1nc(Cl)c(C#N)c(-c2ccccc2)c1C#N | 7.31 |
| COC(=O)C(=Cc1ccc(OC)cc1)NC(C)=O | 12.98 |
| Nc1c2c(nc3c1C(c1c(Cl)cccc1Cl)c1ccc4ccccc4c1O3)CCCC2 (configuration not stated) | 14.02 |
| CCOC(=O)c1cc2cc(OC)ccc2n1C | -11.12 |
| O=C(Cc1c[nH]c2ccccc12)NNCCc1ccccc1 | 0.81 |
| Nc1c2c(nc3c1C(c1ccc(Cl)c(Cl)c1)c1ccc4ccccc4c1O3)CCCC2 (configuration not stated) | -10.24 |
| N#CC1(Br)C(=N)Oc2ccc3ccccc3c2C1c1cccc([N+](=O)[O-])c1 (configuration not stated) | 16.38 |
| O=C(N/N=C/c1c[nH]c2ccccc12)c1ccc(Cl)cc1 | 14.79 |
| O=C1OC(c2ccccc2)=NC1=Cc1ccc(Cl)cc1 | 7.19 |
| CNC(=O)c1cc2cc(OCc3ccccc3)ccc2n1C | 4.29 |
| CC(C(=O)O)c1c[nH]c2ccccc12 (configuration not stated) | 21.1 |
| Nc1c2c(nc3c1C(c1ccc([N+](=O)[O-])cc1)c1c(ccc4ccccc14)O3)CCCC2 (configuration not stated) | 9.13 |
| Cc1ccc(C2C(C#N)=C(N)Oc3c2ccc2ccccc32)cc1 (configuration not stated) | 1.87 |
| O=C(N/N=C/Cc1ccccc1)c1cc2ccccc2n1Cc1ccccc1 | 4.61 |
| CN(N=O)C(=O)NC1(C(=O)O)CC1c1ccccc1 (configuration not stated) | 23.72 |
| NC(=O)c1cc2cc(OCc3ccccc3)ccc2[nH]1 | 5.14 |
| N#CC1=C(N)Oc2ccc3ccccc3c2C1c1ccccc1[N+](=O)[O-] (configuration not stated) | 9.29 |
| Cc1ccc(C(O)SNNc2nc(C)nc3c2c(C)nn3-c2ccccc2)cc1 (configuration not stated) | 11.05 |
| O=C(O)c1cc2ccccc2[nH]1 | 1.67 |
| CNCc1cc2cc(OCc3ccccc3)ccc2n1C.Cl | 14.91 |
| Cl.ClCCCCN1CCCCC1 | -0.73 |
| CC#CCN.Cl | 8.69 |
| C#CCNc1nc(NCCCC2CCN(Cc3ccccc3)CC2)c(C#N)cc1C#N.Cl | -17.1 |
| CNN=C1N=C(SCc2ccccc2)SC1=O | 8.63 |
| N#Cc1c(N)nc(NCCCC2CCN(Cc3ccccc3)CC2)c(C#N)c1-c1ccccc1 | 32.61 |
| CC(=O)NC(=Cc1ccccc1)C(=O)O | 19.96 |
| N#Cc1cc2c(N)n[nH]c2nc1N | 6.95 |
| N#Cc1c(N)nc(NC2CCN(Cc3ccccc3)CC2)c(C#N)c1-c1ccccc1 | 9.32 |

###

# System: Cryptococcus neoformans
# conditionSummary: Concentration 32 ug.mL-1; ASSAY_TEST Inhibition of Fungal Growth; detection method Resazurin; Absorption (OD600-OD570); plate type 384well; NBS; CORNING #3640
# Description: Antifungal activity against Cryptococcus neoformans H99 ATCC 208821 (CO-ADD:FG_002); MIC in YNB media using NBS plates, by Resazurin OD(600-570)
Measured potencies and affinities stand elsewhere.

| molecule | Inhibition / % |
| --- | --- |
| COc1ccc2cc(C3C(C(C)=O)=C(C)Oc4nc5c(c(N)c43)CCCCC5)c(Cl)nc2c1 (stereo unspecified) | -8.4 |
| COc1ccc(C2C(C#N)=C(N)Oc3ccc4ccccc4c32)cc1 (stereo unspecified) | -30.57 |
| N#CCC(=C(C#N)C#N)c1ccccc1 | -3.99 |
| Cn1cc(/C=C2\NC(=S)NC2=O)c2ccccc21 | -4.32 |
| CC(=O)/C=C/C1CCN(Cc2ccccc2)CC1 | -60.96 |
| Nc1c2c(nc3c1C(c1c(Cl)cccc1Cl)c1ccc4ccccc4c1O3)CCCC2 (stereo unspecified) | -7.78 |
| N#Cc1c(Cl)nc(N2CCCCC2)c(C#N)c1-c1ccccc1 | -3.56 |
| COc1ccc(C2C(C#N)=C(N)Oc3ccc4ccccc4c32)cc1OC (stereo unspecified) | -62.6 |
| N#Cc1c(NC2CCC(Cc3ccccc3)CC2)nc(NC2CCN(Cc3ccccc3)CC2)c(C#N)c1-c1ccccc1 (stereo unspecified) | -20.4 |
| COc1nc2nc3c(c(N)c2cc1C#N)CCCC3 | -84.27 |
| CNC(=O)NC1(C(=O)O)CC1c1ccccc1 (stereo unspecified) | -2.43 |

###

# System: Candida albicans
# conditionSummary: 32 ug/mL
# Description: Antifungal activity against Candida albicans ATCC 90028 (CO-ADD:FG_001); MIC in YNB media using NBS plates, by OD630
Results with a measured potency or affinity are listed apart.

| molecule | Inhibition (%) |
| --- | --- |
| CCOC(=O)CCc1c[nH]c2ccccc12 | 5.29 |
| C=CCNc1[nH]c2ccc(O)cc2c1C#N | 2.34 |
| CC(=O)CC(=O)N1[C@@H]2C[C@H]3CCC2(CS1(=O)=O)C3(C)C | 5.03 |
| C1CNCCNCCNCCNC1 | 4.25 |
| COc1ccc(C=C2N=C(SC)N(C)C2=O)cc1 | 0.01 |
| COc1cc(Br)c(C=O)cc1OC | 3.94 |
| Cl.NC1(C(=O)O)CC1c1ccccc1 (stereo not given) | 1.66 |
| O=C1NC(=S)N/C1=C\c1ccccc1 | 0.81 |
| CCOC(=O)C1=C(C)OC(N)=C(C#N)C1c1ccc(OC)c(OC)c1 (stereo not given) | 3.32 |
| CC1=C(C(=O)N2[C@@H]3C[C@H]4CCC3(CS2(=O)=O)C4(C)C)C(c2ccccc2)C(C#N)=C(N)O1 (stereo not given in full) | 3.41 |
| COc1ccc(-c2cc(-c3cc4c(OC)ccc(OC)c4nc3Cl)cc(=O)[nH]2)cc1 | 0.7 |
| Nc1nc(N)c(C=O)c(-c2ccccc2)c1C=O | 9.69 |
| CC(=O)Oc1ccc(C=C2N=C(c3ccccc3)OC2=O)c(OC(C)=O)c1 | 3.75 |
| CC(=O)Oc1cccc(C=C2N=C(c3ccccc3)OC2=O)c1 | 2.1 |
| C#CCNc1nc(N)c(C#N)cc1C#N | 2.29 |
| O=C(N/N=C/Cc1ccccc1)c1cc2ccccc2[nH]1 | -1.49 |
| c1ccc(Cn2ccc3ccccc32)cc1 | 4.28 |
| CSC1=NC2(CC2c2ccccc2)C(=O)N1C (stereo not given) | 0.11 |
| COc1ccc2c(c1)cc(CN)n2C | 2.3 |
| Cc1ccc2nc(Cl)c(/C=N/NCc3ccccc3)cc2c1 | 14.7 |
| CCOc1nc2nc3c(c(N)c2cc1C#N)CCCC3 | 2.23 |
| COc1ccccc1C1c2ccc3ccccc3c2Oc2nc3c(c(N)c21)CCCC3 (stereo not given) | 0.31 |
| C#CCN(C)c1nc(NCCCCC2CCN(Cc3ccccc3)CC2)c(C#N)cc1C#N | 3.03 |
| Cn1ccnc1C1c2ccc3cccnc3c2Oc2nc3c(c(N)c21)CCCCC3 (stereo not given) | 2.52 |
| O=Cc1c[nH]c2ccccc12 [3-FORMYLINDOLE] | 1.76 |
